run_description: NCI Yeast Anticancer Drug Screen. Data for the sgs1 mgt1 strain (AID 161);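 also: 0% = growth of cultures given vehicle only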
condition_label: S. cerevisiae sgs1 mgt1 strain, at 50.0 µM
About 79,000 compounds went through this panel and 15% of them were active in at least one assay; those are over-represented in the sample as a whole. Active and inactive are the calls of the source. Rule as the data show it: active = growth inhibition above about 70%; inactive = the rest.
Valid outcomes are listed here; reply with one: active, inactive

Data request: Short answer needed: outcome of this test for O=C(Nc1nc(=S)c2c(ncn2CCO)[nH]1)c1ccccc1 ?
Data returned: inactive

Data request: Short answer needed: outcome of this test for CCCCCCCCCCCCCCCCCCCCCC(C)C ?
Data returned: inactive

Data request: Short answer needed: outcome of this test for O=C(N=C1[Se]C(=Nc2ccccc2)C(=Nc2ccccc2)N1c1ccccc1)c1ccccc1 ?
Data returned: inactive

Data request: Short answer needed: outcome of this test for O=C(CCc1ccc(O)c(O)c1)NCCc1cc(OCc2ccccc2)cc(OCc2ccccc2)c1 ?
Data returned: active

Data request: Short answer needed: outcome of this test for O=C1OC2CC3CC2C1C3C(=O)N1CCCCC1 (centres undefined) ?
Data returned: inactive

Data request: Short answer needed: outcome of this test for S=C1CSc2c(cnc3ccccc23)N1 ?
Data returned: inactive

Data request: Short answer needed: outcome of this test for CN(C)S(=O)(=O)N(C)C ?
Data returned: inactive

Data request: Short answer needed: outcome of this test for CN=c1ncc2nc(-c3ccccc3)c(-c3ccccc3)n(C)c-2n1 ?
Data returned: inactive

Data request: Short answer needed: outcome of this test for O=C1c2c(O)cccc2C(C(=O)CCCCC(=O)C2c3cccc(O)c3C(=O)c3c(O)cccc32)c2cccc(O)c21 ?
Data returned: inactive

Data request: Short answer needed: outcome of this test for Cc1cc2c(=O)c(C(=O)O)c[nH]c2cc1-n1cccc1 ?
Data returned: inactive

Data request: Short answer needed: outcome of this test for CCCCCO/C=C/CN1CCOCC1 ?
Data returned: inactive

Data request: Short answer needed: outcome of this test for CC(C#N)(Nc1ccccc1)c1ccccc1 (centres undefined) ?
Data returned: inactive

Data request: Short answer needed: outcome of this test for CN(C)CC(O)C(=O)O (centres undefined) ?
Data returned: inactive

Data request: Short answer needed: outcome of this test for CCC1CCCCC1O (centres undefined) ?
Data returned: inactive

Data request: Short answer needed: outcome of this test for CC[C@H](/C=C/[C@@H](C)[C@H]1CC[C@H]2[C@@H]3CC[C@@H]4CC(=O)CC[C@]4(C)[C@H]3CC[C@]12C)C(C)C ?
Data returned: inactive

Data request: Short answer needed: outcome of this test for Oc1c(Cl)cccc1CN1CCOCC1 ?
Data returned: inactive

Data request: Short answer needed: outcome of this test for O=C(CN=C(CN(c1ccccc1)c1ccccc1)Oc1c(Cl)cc(Cl)cc1Cl)N1c2ccccc2Sc2ccccc21 ?
Data returned: inactive

Data request: Short answer needed: outcome of this test for CSc1nc(NC2OC(CO)C(O)C(O)C2O)c(C=O)c(=O)n1C (centres undefined) ?
Data returned: inactive

Data request: Short answer needed: outcome of this test for S=C1N=C(Cl)/C(=C\c2ccccc2)N1 ?
Data returned: inactive

Data request: Short answer needed: outcome of this test for C=C(COC(=O)C(C)C)[C@H]1Oc2ccc(C(C)=O)cc2[C@@H]1OC(=O)C(C)C ?
Data returned: inactive

Data request: Short answer needed: outcome of this test for O=C(NC(CSC(=O)c1ccccc1)C(=O)O)c1ccccc1 (centres undefined) ?
Data returned: inactive

Data request: Short answer needed: outcome of this test for Cc1cccc(-c2cc(=O)c3cccnc3[nH]2)c1 ?
Data returned: inactive

Data request: Short answer needed: outcome of this test for CCCCCC1OCC(C)(C)CO1 ?
Data returned: inactive

Data request: Short answer needed: outcome of this test for N#C/C(=C\c1ccc(F)cc1)C(=O)O ?
Data returned: inactive

====

run_description: NCI Yeast Anticancer Drug Screen. Data for the mlh1 rad18 strain (AID 175)
condition_label: S. cerevisiae mlh1 rad18 strain growth inhibition; at 50.0 µM; active compounds read high
About 79,000 compounds went through this panel and 15% of them were active in at least one assay; those are over-represented in the sample as a whole. Active and inactive are the calls of the source. Rule as the data show it: active = growth inhibition above about 70%; inactive = the rest.
Field: growth inhibition. Provide a value for each of the compounds that follow.

Data request: Field request: growth inhibition | item: CC(=O)c1sc(Nc2nnc(-c3ccc(-c4nnc(Nc5nc(C)c(C(C)=O)s5)o4)cc3)o2)nc1C
Data returned: 3.05% (inactive)

Data request: Field request: growth inhibition | item: CNC(C)C#N (stereo unspecified)
Data returned: -11.6% (inactive)

Data request: Field request: growth inhibition | item: O=C(COc1cccc(C(=O)O)c1)Nc1ccccc1
Data returned: 8% (inactive)

Data request: Field request: growth inhibition | item: C(=Nc1ccc2c(c1)Cc1ccccc1-2)c1ccccn1
Data returned: 49.4% (inactive)

Data request: Field request: growth inhibition | item: CCSC1=C(C)N(C=NC(C)(C)C)CC1
Data returned: -14% (inactive)

Data request: Field request: growth inhibition | item: COc1ccc(NC(=O)NNS(=O)(=O)c2ccc(C)cc2)cc1
Data returned: -36.9% (inactive)

Data request: Field request: growth inhibition | item: CCOC(=O)CC(=O)CC
Data returned: 3.25% (inactive)

Data request: Field request: growth inhibition | item: O=C(/C=C/c1ccc(OCCCCCCCCCCOc2ccc(/C=C/C(=O)c3ccc(Cl)cc3)cc2)cc1)c1ccc(Cl)cc1
Data returned: 15.6% (inactive)

Data request: Field request: growth inhibition | item: O=C(OCC(O)C(O)C(O)C(O)COC(=O)c1ccccc1)c1ccccc1 (stereo unspecified) (tested in a mixture with another compound)
Data returned: 12.2% (inactive)

Data request: Field request: growth inhibition | item: CCN1CC(C(=O)NC(C)C(=O)O)Cc2ccccc21 (stereo unspecified)
Data returned: -8% (inactive)

Data request: Field request: growth inhibition | item: CNC(=O)NC(C)(C)CCCCC(C)(C)NC(=O)NC
Data returned: 19.8% (inactive)

====

Field: growth inhibition. Provide a value for each of the compounds that follow.
run_description: NCI Yeast Anticancer Drug Screen. Data for the rad50 strain (AID 155);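 also: 0% = growth of vehicle-only cultures of the same strain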
condition_label: S. cerevisiae rad50 strain growth inhibition; at 50.0 µM; active compounds read high
This is part of a sample that, as a whole, favours compounds with a hit. Of some 79,000 tested, about 15% had one in any assay.
Kindly answer with a numeric value in %, unit omitted.

Data request: Field request: growth inhibition | item: Cc1cc(OCc2nnc3n2S(=O)(=O)c2ccccc2N3C)ccc1Cl
Data returned: 49.4

Data request: Field request: growth inhibition | item: O=C1CSC(c2cccs2)N1CCN1C(=O)CSC1c1cccs1 (centres undefined)
Data returned: 4.65

Data request: Field request: growth inhibition | item: CCCCC(=O)c1ccc2ccccc2c1O
Data returned: 6.9

Data request: Field request: growth inhibition | item: CNC(=O)c1ccc[n+](CC(=O)NCc2ccccc2)c1
Data returned: -1.8

Data request: Field request: growth inhibition | item: CCOC1NC(=O)Oc2ccccc21 (centres undefined)
Data returned: 4.2

Data request: Field request: growth inhibition | item: C/C(=N\NC(N)=O)c1sc(-c2nc(C)c(/C(C)=N/NC(N)=O)s2)nc1C
Data returned: 32.8

Data request: Field request: growth inhibition | item: CN(C)C=Nc1c2c(nc3ccccc13)CCCC2
Data returned: -35.4

Data request: Field request: growth inhibition | item: CC(C)(CCC(C)(C)c1ccccc1)c1ccccc1
Data returned: -2.7

Data request: Field request: growth inhibition | item: Cc1ccc(C(=O)c2ccccc2Cc2cccc3ccccc23)c(C)c1
Data returned: 4.35

Data request: Field request: growth inhibition | item: CCN(CC)CCCNc1nc2ccccc2c2[nH]c3ccc(OC)cc3c12
Data returned: -37.4

Data request: Field request: growth inhibition | item: CC1=C(C(=O)NNC(=O)c2ccccc2O)CC(C(=O)NNC(=O)c2ccccc2O)=C(C)N1
Data returned: 45.5

Data request: Field request: growth inhibition | item: Cc1ccc(N=Nc2ccc([N+](=O)[O-])cc2)c([N+](=O)[O-])c1
Data returned: 10.9

Data request: Field request: growth inhibition | item: CC(C)(C)OC(=O)NN(CC(=O)OCc1ccccc1)N=O
Data returned: 5.35

Data request: Field request: growth inhibition | item: N#Cc1cnn(-c2ccc([N+](=O)[O-])cc2)c1N
Data returned: 14.8

Data request: Field request: growth inhibition | item: CCCC(O)c1ccccc1Cl (centres undefined)
Data returned: 21.8

Data request: Field request: growth inhibition | item: CCc1ccc(/C(C#N)=C/c2ccccc2Cl)cc1
Data returned: 21.9

Data request: Field request: growth inhibition | item: CCC(/C=C/C(C)C1CCC2C3CC=C4CC(OC(=O)Nc5ccccc5)CCC4(C)C3CCC12C)C(C)C (centres undefined)
Data returned: -6.65

Data request: Field request: growth inhibition | item: CCCCC(CN(C)C)C(=O)/C=C/c1ccccc1 (centres undefined)
Data returned: 23.2

Data request: Field request: growth inhibition | item: COc1ccc2nc(-c3ccc(F)cc3)cc(C(=O)O)c2c1
Data returned: -4.6

Data request: Field request: growth inhibition | item: c1ccc(N2N=NC3C4CC(C5COCC54)C32)cc1 (centres undefined)
Data returned: 4.6

Data request: Field request: growth inhibition | item: Cc1cc2ccccc2c[n+]1CC(=O)CC([O-])(C(F)(F)F)C(F)(F)F
Data returned: 2.85

Data request: Field request: growth inhibition | item: CO[C@@]12C[C@@H](C)[C@]34O[C@H]3C[C@]3(C)O[C@]43CC1=C(C)C(=O)O2
Data returned: 10.2

Data request: Field request: growth inhibition | item: O=C(O)CN(CC(=O)O)Cc1ccccc1
Data returned: -22.3

Data request: Field request: growth inhibition | item: CCN1C(=O)CC(SCCSC2CC(=O)N(CC)C2=O)C1=O (centres undefined)
Data returned: 16.7
